Target: human C5 protein (human, UniProt P01031 19-673; P01031 678-1676)
Assay: cell-based or functional assay
Positions of bridges follow the written chain, without caps; N, C: chain ends. Non-standard residues stand in square brackets, D forms with d. Primed or numbered codes have the meaning given here. No end group written: not given here. mXylyl(3) = bridging moiety between the two residues given in brackets; Trp(7-aza) = N[C@@H](Cc1c[nH]c2ncccc12)C(=O)O; Chg = N[C@H](C(=O)O)C1CCCCC1; Phg = N[C@H](C(=O)O)c1ccccc1; NMeS = CN[C@@H](CO)C(=O)O; Nva = CCC[C@H](N)C(=O)O

{"columns": ["binder", "Avg. IC50, human hemolysis assay"],
 "data": [
  ["Ac-[Nva]C[Phg]T[Trp(7-aza)]EY[NMeS]HC[Nva]P[Nva] (bridge 2-10) [R3040]", "> 100 µM"],
  ["Ac-[Chg]C[Phg]T[Trp(7-aza)]EY[NMeS]AC[Nva]-NH2 (linker 2-10 via mXylyl(3)) [R3089]", "> 15 µM"],
  ["Ac-[Nva]C[Phg][dA][Trp(7-aza)]EY[NMeS]HC[Nva]-NH2 (linker 2-10 via mXylyl(3)) [R3133]", "> 75 µM"]
]}
